For each entry below, report its solubility thermodynamic value.
Assay: Thermodynamic solubility of compound by shake-flask technique
Format: physicochemical
Conditions: read-out: Therm_solubility

Quick one: solubility thermodynamic of Cc1nn(-c2ccc(F)cc2)c(NS(=O)(=O)c2ccc(C#N)cc2)c1C(=O)N[C@@H](C)C(C)(C)C ?
> 2010 µM

Please give the result for Cc1ccc(S(=O)(=O)Nc2c(C(=O)N[C@@H](C)C(C)(C)C)c(C)nn2-c2ccccc2)cc1 too.
1030 µM

Please give the result for Cc1nn(C2CCOCC2)c(NS(=O)(=O)c2ccc(C3CC3)cc2)c1C(=O)N[C@@H](C)C(C)(C)C too.
> 2800 µM
